Sourced from patent US4285949A

method description: Acute toxicity, LD50 by intravenous route in mice (Lichtfield and Wilcoxon)
experimental parameters: mouse, in vivo; mice, intravenous
quantity: LD50 (mg/kg)
Give the value in mg/kg but do not write mg/kg after it.

The molecule listed as CC[C@]12CCCN3CCc4c(n(c5ccccc45)[C@@](O)(C(=O)OC)C1)[C@@H]32 [Vincamine] has a reported LD50 of 47

----------
# LD50 annotations
method description: Acute toxicity, LD50 by intravenous route in mice (Lichtfield and Wilcoxon)
experimental parameters: mouse, in vivo, iv
Could you give me the number in mg/kg? Just the number is fine.

{"compound": "CC[C@]12C=CCN3CCc4c(n(c5ccc(Cl)cc45)[C@](O)(C(=O)OC)C1)[C@@H]32 [OC-231 E, 10-Chloro-16-epiΔ14-vincamine]", "unit tag": "mg/kg", "LD50": 47}
{"compound": "CC[C@]12C=CCN3CCc4c(n(c5ccc(Cl)cc45)C(C(=O)OC)=C1)[C@@H]32", "unit tag": "mg/kg", "LD50": 52}

Attention now shifts to the item below.
LD50 measured on CC[C@]12C=CCN3CCc4c(n(c5ccc(Cl)cc45)[C@@](O)(C(=O)OC)C1)[C@@H]32 = 47
